Target: ^K48Ub4 (Homo sapiens, UniProt P0CG47)
Construct: solid phase peptide synthesis of Ub monomers (modified as required); made in house
Test: SPR binding of cyclic peptides to K48-linked tetra-ubiquitin
Conditions: SPR, target ^K48Ub4

>  <SMILES STRUCTURE>
CC(C)C[C@@H]1NC(=O)[C@H](CC(N)=O)NC(=O)[C@H](CC(=O)O)NC(=O)[C@H](Cc2ccccc2)NC(=O)[C@H](Cc2c[nH]c3ccccc23)NC(=O)CNC(=O)[C@@H](Cc2c[nH]c3ccccc23)NC(=O)CSC[C@@H](C(=O)NCC(N)=O)NC(=O)[C@H](Cc2c[nH]cn2)NC(=O)[C@H]([C@@H](C)O)NC(=O)[C@H](C(C)C)NC(=O)[C@H](Cc2ccc(O)cc2)NC(=O)[C@H](Cc2c[nH]c3ccccc23)NC(=O)[C@H](Cc2ccc(O)cc2)NC1=O

>  <koff>
0.011 s⁻¹

$$$$
